Form field: IC50 (one value per entry).
target: human CYP11B2 enzyme (Homo sapiens, UniProt P19099); construct: the ORF of human CYP11B1 or CYP11B2 were transfected into G402 cells; assay: Enzyme inhibition activity assay in G402 cells stably expressing human CYP11B2 (aldosterone production from 11-DOC, LC/MS); conditions: 1 µM 11-DOC, 16 hours, aldosterone detected
All answers are understood in nM, so give the number only.

Reference set, count: 10
>>> readout_number("CNC(=O)N[C@@H]1CCCc2c(-c3ccc4c(c3)OCC(=O)N4C)cncc21")
11.7
>>> readout_number("[2H]C([2H])([2H])OC(=O)N[C@@H]1CCCc2c(-c3cc(F)c4c(ccc(=O)n4C)c3)cncc21")
5.9
>>> readout_number("[2H]C([2H])([2H])OC(=O)N[C@@H]1CCCc2c(-c3ccc4c(c3)COC(=O)N4C)cncc21")
3.6
>>> readout_number("COC(=O)N[C@@H]1CCOc2c(-c3ccc4c(c3)cc(C#N)n4C)cncc21")
1.4
>>> readout_number("CCC(=O)N[C@@H]1CCCc2c(-c3ccc4c(c3)CC(=O)N4C)cncc21")
24.2
>>> readout_number("CCC(=O)N[C@@H]1CCOc2c(-c3cc(F)c4c(ccc(=O)n4C)c3)cncc21")
29.1
>>> readout_number("CCC(=O)N[C@@H]1CCCc2c(-c3ccc4c(cnn4C)c3)cncc21")
26.5
>>> readout_number("COC(=O)N[C@@H]1CCCc2c(-c3cc(F)c4c(ccc(=O)n4C)c3)cncc21")
6.9
>>> readout_number("CNC(=O)N[C@@H]1CCCc2c(-c3ccc4c(c3)COC(=O)N4C)cncc21")
7.5
>>> readout_number("[2H]C([2H])([2H])NC(=O)N[C@@H]1CCCc2c(-c3cc(F)c4c(ccc(=O)n4C)c3)cncc21")
7.6

Consider the additional molecule presented here.
Q: Recorded IC50 for `CCC(=O)N[C@@H]1CCCc2c(-c3ccc4c(ccc(=O)n4C(F)F)c3)cncc21` , please?
Ans: 32.7

====

assay: in vivo; conditions: male, Sprague-Dawley, rat, plasma, po, 10 mg/kg
Reported metric: MRT inf (h)
All answers are understood in h, so give the number only.

Reference set, count: 2
>>> readout_number("CCC(=O)N[C@@H]1CCCc2c(-c3ccc4c(c3)CCC(=O)N4C)cncc21 [Control Compound, reference compound]")
6.41
>>> readout_number("CCC(=O)N[C@@H]1CCCc2c(-c3cc(C)c4c(ccc(=O)n4C)c3)cncc21")
6.24

Consider the additional molecule presented here.
Q: Recorded MRT inf for `CCC(=O)N[C@@H]1CCOc2c(-c3ccc4c(ccc(=O)n4C)c3)cncc21` , please?
Ans: 8.19

====

assay: Pharmacokinetic determination in monkeys after gavage administration (P.O.); assay type: in vivo, Cynomolgus monkeys (Macaca fascicularis); details: cynomolgus monkey, in vivo, po, 1 mg/kg, plasma
Form field: half-life (one value per entry).
All answers are understood in h, so give the number only.

>>> readout_number("CCC(=O)N[C@@H]1CCOc2c(-c3ccc4c(c3)cc(C#N)n4C)cncc21 [Compound A10-P2]")
8.48

Consider the additional compound presented here.
Q: Recorded half-life for CCC(=O)N[C@@H]1CCOc2c(-c3ccc4c(c3)CCC(=O)N4C)cncc21 [Compound A02-P2] , please?
Ans: 7.44

====

Form field: IC50 (one value per entry).
Target: human CYP11B2 enzyme (Homo sapiens, UniProt P19099)
Construct: the ORF of human CYP11B1 or CYP11B2 were transfected into G402 cells
Sequence (P19099 25-503): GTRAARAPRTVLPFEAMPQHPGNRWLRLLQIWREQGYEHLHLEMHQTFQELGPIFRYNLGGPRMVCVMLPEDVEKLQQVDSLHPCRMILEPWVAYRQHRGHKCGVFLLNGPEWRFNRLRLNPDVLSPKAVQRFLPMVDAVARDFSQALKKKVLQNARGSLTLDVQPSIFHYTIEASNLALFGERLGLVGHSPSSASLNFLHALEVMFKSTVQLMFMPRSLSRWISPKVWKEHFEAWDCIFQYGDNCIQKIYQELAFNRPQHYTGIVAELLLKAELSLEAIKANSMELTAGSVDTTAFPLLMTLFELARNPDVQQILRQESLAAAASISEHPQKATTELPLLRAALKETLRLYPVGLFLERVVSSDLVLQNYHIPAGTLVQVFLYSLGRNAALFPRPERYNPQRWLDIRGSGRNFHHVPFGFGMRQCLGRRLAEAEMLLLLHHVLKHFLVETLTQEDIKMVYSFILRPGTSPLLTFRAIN
Assay: Enzyme inhibition activity assay in G402 cells stably expressing human CYP11B2 (aldosterone production from 11-DOC, LC/MS)
Conditions: 1 µM 11-DOC, 16 hours, aldosterone detected

Reference set, count: 2
>>> result("[2H]C([2H])([2H])OC(=O)N[C@@H]1CCOc2c(-c3ccc4c(c3)COC(=O)N4C)cncc21 [Compound A40]")
"6.1 nM"
>>> result("CNC(=O)N[C@@H]1CCCc2c(-c3ccc4c(c3)CCC(=O)N4C)cncc21 [Compound D01]")
"5.9 nM"

Consider the additional compound presented here.
Q: Recorded IC50 for C[C@H](F)C(=O)N[C@@H]1CCCc2c(-c3ccc4c(c3)CCC(=O)N4C)cncc21 [Compound D07-P2] , please?
Ans: 11.8 nM

====

Form field: IC50 (one value per entry).
target: human CYP11B1 enzyme (Homo sapiens); construct: the ORF of human CYP11B1 or CYP11B2 were transfected into G402 cells; experiment: Enzyme inhibition activity assay in G402 cells stably expressing human CYP11B1 (cortisol production from 11-DC, LC/MS); conditions: 1 µM 11-DC, 16 hours, cortisol detected
Sequence (P15538 25-503): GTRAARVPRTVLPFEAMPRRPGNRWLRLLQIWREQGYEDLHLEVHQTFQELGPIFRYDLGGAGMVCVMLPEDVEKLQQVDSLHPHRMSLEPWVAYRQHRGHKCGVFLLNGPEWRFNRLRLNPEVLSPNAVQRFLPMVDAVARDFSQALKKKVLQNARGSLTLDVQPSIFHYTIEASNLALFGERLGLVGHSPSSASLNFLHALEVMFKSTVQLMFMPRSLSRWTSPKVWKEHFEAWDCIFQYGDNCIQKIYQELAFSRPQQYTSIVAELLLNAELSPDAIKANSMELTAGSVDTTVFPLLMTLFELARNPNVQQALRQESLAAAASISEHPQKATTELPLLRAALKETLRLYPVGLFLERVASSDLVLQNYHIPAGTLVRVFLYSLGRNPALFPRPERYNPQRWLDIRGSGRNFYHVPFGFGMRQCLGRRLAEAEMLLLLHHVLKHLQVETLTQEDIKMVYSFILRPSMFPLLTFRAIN
All answers are understood in nM, so give the number only.

Q: Please state recorded IC50 (tested on human CYP11B1 enzyme (Homo sapiens)) of `COC(=O)N[C@@H]1CCCc2c(-c3cc(Cl)c4c(ccc(=O)n4C)c3)cncc21`
Ans: 625

Q: Please state recorded IC50 (tested on human CYP11B1 enzyme (Homo sapiens)) of CCC(=O)N[C@@H]1CC=Cc2c(-c3ccc4c(c3)CCC(=O)N4C)cncc21 [Compound A04-P1]
Ans: 244

Q: Please state recorded IC50 (tested on human CYP11B1 enzyme (Homo sapiens)) of `[2H]C([2H])([2H])OC(=O)N[C@@H]1CCOc2c(-c3cc(Cl)c4c(ccc(=O)n4C)c3)cncc21`
Ans: 1660

====

Form field: pIC50 (one value per entry).
Molecular target: human CYP11B2 enzyme (Homo sapiens)
Construct: the ORF of human CYP11B1 or CYP11B2 were transfected into G402 cells
Sequence (P19099 25-503): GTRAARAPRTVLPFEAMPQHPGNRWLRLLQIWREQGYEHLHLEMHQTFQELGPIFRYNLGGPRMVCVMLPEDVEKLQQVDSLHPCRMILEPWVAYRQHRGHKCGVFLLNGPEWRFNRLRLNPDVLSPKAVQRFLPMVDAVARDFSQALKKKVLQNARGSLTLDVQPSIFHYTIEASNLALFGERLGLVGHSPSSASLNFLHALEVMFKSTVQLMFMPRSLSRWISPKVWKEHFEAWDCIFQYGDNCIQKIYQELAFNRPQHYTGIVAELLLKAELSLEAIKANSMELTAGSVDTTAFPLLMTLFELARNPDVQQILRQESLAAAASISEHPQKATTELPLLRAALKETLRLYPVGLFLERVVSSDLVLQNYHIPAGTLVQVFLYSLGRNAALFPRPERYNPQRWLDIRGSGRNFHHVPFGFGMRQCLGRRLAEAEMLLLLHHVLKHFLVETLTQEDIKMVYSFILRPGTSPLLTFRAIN
Assay: Enzyme inhibition activity assay in G402 cells stably expressing human CYP11B2 (aldosterone production from 11-DOC, LC/MS)
Conditions: 1 µM 11-DOC, 16 hours, aldosterone detected
From the text: G402 cells (ATCC, CRL 1440) are epithelioid cells isolated from the kidney of a patient with renal failure and are a type of leiomyoblastoma. […] Enzyme Inhibition Activity Assay: CYP11B1 G402/CYP11B2 G402 cells were spread out flatly in cell culture plates. […] Cells were then collected, and specific products were detected using LC/MS methods with an AB SCIEX TRIPLE QUAD 5500+, CTO-40S instrument (CYP11B2 enzyme detecting aldosterone; CYP11B1 enzyme detecting cortisol). […]
# log scale: pIC50 equals minus log10 of the concentration in mol/L

>>> readout_number("CCC(=O)N[C@@H]1CCCc2c(-c3cc(Cl)c4c(ccc(=O)n4C)c3)cncc21")
7.95
>>> readout_number("CN(C)C(=O)N[C@@H]1CCCc2c(-c3ccc4c(c3)OCC(=O)N4C)cncc21")
7.72

Q: Recorded pIC50 for `[2H]C([2H])([2H])NC(=O)N[C@@H]1CCOc2c(-c3ccc4c(c3)COC(=O)N4C)cncc21` , please?
Ans: 8.12

Q: Recorded pIC50 for `[2H]C([2H])([2H])OC(=O)N[C@@H]1CCOc2c(-c3cc(F)c4c(ccc(=O)n4C)c3)cncc21` , please?
Ans: 7.95
